# Test system: HeLa Kyoto
# assay_name: melting temperature (median over replicates), in situ; higher = more thermally stable
# measurement_context: cell cycle stage: G1/S
measured_attribute: melting temperature (°C)

sequence_chain: MPKCPKCNKEVYFAERVTSLGKDWHRPCLKCEKCGKTLTSGGHAEHEGKPYCNHPCYAAMFGPKGFGRGGAESHTFK [CRIP1]
numeric_value: 57.6
--
sequence_chain: MARPLVPSSQKALLLELKGLQEEPVEGFRVTLVDEGDLYNWEVAIFGPPNTYYEGGYFKARLKFPIDYPYSPPAFRFLTKMWHPNIYETGDVCISILHPPVDDPQSGELPSERWNPTQNVRTILLSVISLLNEPNTFSPANVDASVMYRKWKESKGKDREYTDIIRKQVLGTKVDAERDGVKVPTTLAEYCVKTKAPAPDEGSDLFYDDYYEDGEVEEEADSCFGDDEDDSGTEES [CDC34]
numeric_value: 48.8

---

# System: HeLa Kyoto
# assay_name: thermal stability score vs G1/S (z-score of summed log2 fold changes over temperatures); higher = more thermally stable than in G1/S
# measurement_context: cell cycle stage: mitosis

sequence_chain: MDNYADLSDTELTTLLRRYNIPHGPVVGSTRRLYEKKIFEYETQRRRLSPPSSSAASSYSFSDLNSTRGDADMYDLPKKEDALLYQSKGYNDDYYEESYFTTRTYGEPESAGPSRAVRQSVTSFPDADAFHHQVHDDDLLSSSEEECKDRERPMYGRDSAYQSITHYRPVSASRSSLDLSYYPTSSSTSFMSSSSSSSSWLTRRAIRPENRAPGAGLGQDRQVPLWGQLLLFLVFVIVLFFIYHFMQAEEGNPF [EMD]
thermal stability score: -0.468
//
sequence_chain: MGNCCWTQCFGLLRKEAGRLQRVGGGGGSKYFRTCSRGEHLTIEFENLVESDEGESPGSSHRPLTEEEIVDLRERHYDSIAEKQKDLDKKIQKELALQEEKLRLEEEALYAAQREAARAAKQRKLLEQERQRIVQQYHPSNNGEYQSSGPEDDFESCLRNMKSQYEVFRSSRLSSDATVLTPNTESSCDLMTKTKSTSGNDDSTSLDLEWEDEEGMNRMLPMRERSKTEEDILRAALKYSNKKTGSNPTSASDDSNGLEWENDFVSAEMDDNGNSEYSGFVNPVLELSDSGIRHSDTDQQTR [AP1AR]
thermal stability score: -1.09
//
sequence_chain: MAAGDGDVKLGTLGSGSESSNDGGSESPGDAGAAAEGGGWAAAALALLTGGGEMLLNVALVALVLLGAYRLWVRWGRRGLGAGAGAGEESPATSLPRMKKRDFSLEQLRQYDGSRNPRILLAVNGKVFDVTKGSKFYGPAGPYGIFAGRDASRGLATFCLDKDALRDEYDDLSDLNAVQMESVREWEMQFKEKYDYVGRLLKPGEEPSEYTDEEDTKDHNKQD [PGRMC2]
thermal stability score: 0.992
//
sequence_chain: MPVWGGGNKCGACGRTVYHAEEVQCDGRSFHRCCFLCMVCRKNLDSTTVAIHDEEIYCKSCYGKKYGPKGYGYGQGAGTLNMDRGERLGIKPESVQPHRPTTNPNTSKFAQKYGGAEKCSRCGDSVYAAEKIIGAGKPWHKNCFRCAKCGKSLESTTLTEKEGEIYCKGCYAKNFGPKGFGYGQGAGALVHAQ [CSRP2]
thermal stability score: -3.46
//
sequence_chain: MAAPLRIQSDWAQALRKDEGEAWLSCHPPGKPSLYGSLTCQGIGLDGIPEVTASEGFTVNEINKKSIHISCPKENASSKFLAPYTTFSRIHTKSITCLDISSRGGLGVSSSTDGTMKIWQASNGELRRVLEGHVFDVNCCRFFPSGLVVLSGGMDAQLKIWSAEDASCVVTFKGHKGGILDTAIVDRGRNVVSASRDGTARLWDCGRSACLGVLADCGSSINGVAVGAADNSINLGSPEQMPSEREVGTEAKMLLLAREDKKLQCLGLQSRQLVFLFIGSDAFNCCTFLSGFLLLAGTQDGNIYQLDVRSPRAPVQVIHRSGAPVLSLLSVRDGFIASQGDGSCFIVQQDLDYVTELTGADCDPVYKVATWEKQIYTCCRDGLVRRYQLSDL [PAAF1]
thermal stability score: -0.84
//
sequence_chain: MSDLRITEAFLYMDYLCFRALCCKGPPPARPEYDLVCIGLTGSGKTSLLSKLCSESPDNVVSTTGFSIKAVPFQNAILNVKELGGADNIRKYWSRYYQGSQGVIFVLDSASSEDDLEAARNELHSALQHPQLCTLPFLILANHQDKPAARSVQEIKKYFELEPLARGKRWILQPCSLDDMDALKDSFSQLINLLEEKDHEAVRM [ARL15]
thermal stability score: 0.438
//
sequence_chain: MAAPEPLRPRLCRLVRGEQGYGFHLHGEKGRRGQFIRRVEPGSPAEAAALRAGDRLVEVNGVNVEGETHHQVVQRIKAVEGQTRLLVVDQETDEELRRRQLTCTEEMAQRGLPPAHDPWEPKPDWAHTGSHSSEAGKKDVSGPLRELRPRLCHLRKGPQGYGFNLHSDKSRPGQYIRSVDPGSPAARSGLRAQDRLIEVNGQNVEGLRHAEVVASIKAREDEARLLVVDPETDEHFKRLRVTPTEEHVEGPLPSPVTNGTSPAQLNGGSACSSRSDLPGSDKDTEDGSAWKQDPFQESGLHLSPTAAEAKEKARAMRVNKRAPQMDWNRKREIFSNF [SLC9A3R2]
thermal stability score: -3.57
//
sequence_chain: MVLLESEQFLTELTRLFQKCRTSGSVYITLKKYDGRTKPIPKKGTVEGFEPADNKCLLRATDGKKKISTVVSSKEVNKFQMAYSNLLRANMDGLKKRDKKNKTKKTKAAAAAAAAAPAAAATAPTTAATTAATAAQ [SRP14]
thermal stability score: -4.66
//
sequence_chain: MDALQLANSAFAVDLFKQLCEKEPLGNVLFSPICLSTSLSLAQVGAKGDTANEIGQVLHFENVKDVPFGFQTVTSDVNKLSSFYSLKLIKRLYVDKSLNLSTEFISSTKRPYAKELETVDFKDKLEETKGQINNSIKDLTDGHFENILADNSVNDQTKILVVNAAYFVGKWMKKFSESETKECPFRVNKTDTKPVQMMNMEATFCMGNIDSINCKIIELPFQNKHLSMFILLPKDVEDESTGLEKIEKQLNSESLSQWTNPSTMANAKVKLSIPKFKVEKMIDPKACLENLGLKHIFSEDTSDFSGMSETKGVALSNVIHKVCLEITEDGGDSIEVPGARILQHKDELNADHPFIYIIRHNKTRNIIFFGKFCSP [SERPINB5]
thermal stability score: 0.174
//
sequence_chain: MEDPQSKEPAGEAVALALLESPRPEGGEEPPRPSPEETQQCKFDGQETKGSKFITSSASDFSDPVYKEIAITNGCINRMSKEELRAKLSEFKLETRGVKDVLKKRLKNYYKKQKLMLKESNFADSYYDYICIIDFEATCEEGNPPEFVHEIIEFPVVLLNTHTLEIEDTFQQYVRPEINTQLSDFCISLTGITQDQVDRADTFPQVLKKVIDWMKLKELGTKYKYSLLTDGSWDMSKFLNIQCQLSRLKYPPFAKKWINIRKSYGNFYKVPRSQTKLTIMLEKLGMDYDGRPHCGLDDSKNIARIAVRMLQDGCELRINEKMHAGQLMSVSSSLPIEGTPPPQMPHFRK [ERI1]
thermal stability score: 0.0498
